biological target: Sialic acid-binding Ig-like lectin 9 (Homo sapiens) (UniProt Q9Y336); assay: Hs-Siglec9 ALPHAscreen SOP 20170721; parameters: scale not given: direction of the effect not stated beside the values; conditions: 10 µM
Sequence (Q9Y336 whole entry): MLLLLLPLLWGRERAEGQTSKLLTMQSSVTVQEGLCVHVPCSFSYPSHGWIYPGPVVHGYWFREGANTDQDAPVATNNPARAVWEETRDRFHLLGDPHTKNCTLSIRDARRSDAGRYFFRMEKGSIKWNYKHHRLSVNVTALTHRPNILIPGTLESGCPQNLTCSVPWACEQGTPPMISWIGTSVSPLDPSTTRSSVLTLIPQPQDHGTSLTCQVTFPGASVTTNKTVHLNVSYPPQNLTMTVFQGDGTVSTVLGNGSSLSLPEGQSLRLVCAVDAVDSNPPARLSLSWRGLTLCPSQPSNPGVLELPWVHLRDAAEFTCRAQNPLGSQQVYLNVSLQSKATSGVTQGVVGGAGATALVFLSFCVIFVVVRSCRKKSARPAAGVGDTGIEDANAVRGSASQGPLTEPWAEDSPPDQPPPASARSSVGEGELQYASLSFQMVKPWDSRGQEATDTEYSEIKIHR
Please go through the items and note down their Percent Effect.
# output: bare number, implied unit %

Using the record for Cn1c(NCC(O)c2ccc(F)cc2F)c(C#N)c(=O)n(C)c1=O (stereo unspecified) , state its measured Percent Effect.
-5.84

Using the record for `CCCc1nc(CN2CCN(Cc3noc(CCC)n3)CC2)no1` , state its measured Percent Effect.
0.206

Using the record for CN(C)S(=O)(=O)N1CCC2(COCc3cnc(-c4ccccc4)nc32)C1 (stereo unspecified) , state its measured Percent Effect.
-2.12

Using the record for CC(C)c1nccn1C1CCCN(C(=O)c2ccc3c(c2)OCO3)C1 (stereo unspecified) , state its measured Percent Effect.
-5.54

Using the record for `O=C(Nc1ccccc1OC(F)F)C1=NN(c2ccccc2)C(=O)CN1` , state its measured Percent Effect.
-7.92

Using the record for Cc1cc(CN2CCCC2c2noc(C3CC3)n2)c2ccccc2n1 (stereo unspecified) , state its measured Percent Effect.
5.64

Using the record for `COc1ccc(-n2cnnc2SCC(C)(C)O)cn1` , state its measured Percent Effect.
25.4

Using the record for `Cc1cnn(CCC(=O)N2CCCN(c3cccnn3)CC2)c1` , state its measured Percent Effect.
0.558

Using the record for `O=C(c1cscn1)N1CCC[C@]2(C[C@H](OCC3CC3)CO2)C1` , state its measured Percent Effect.
4.3

Using the record for `CO[C@H]1CCN(S(=O)(=O)c2cn(C)cn2)[C@H]1Cc1cnn(C)c1` , state its measured Percent Effect.
2.33

Using the record for `FC(F)(F)c1cccc(C2(CNCc3ccncc3)CCOCC2)c1` , state its measured Percent Effect.
-1.68

Using the record for CC(C)CN1CCC(c2nc3c([nH]2)CC(C)(C)CNC3=O)C1 (stereo unspecified) , state its measured Percent Effect.
5.96

Using the record for `COc1ncccc1NC(=O)N1CCC(CN2CCOCC2)CC1` , state its measured Percent Effect.
11.1

Using the record for `COc1ccc(OCC(=O)NS(=O)(=O)c2cc(F)ccc2F)cc1` , state its measured Percent Effect.
-4.95

Using the record for `CSc1ncccc1C(=O)N1CCC(c2nc3c(C)cccc3[nH]2)CC1` , state its measured Percent Effect.
10.4

Using the record for CCCNC(=O)C(C)n1cc(Br)cn1 (stereo unspecified) , state its measured Percent Effect.
2.6

Using the record for COc1cc(CC(O)CO)c(OC)c2c1OCO2 (stereo unspecified) , state its measured Percent Effect.
4.03

Using the record for Cc1nc(CN2CCCC(NCCc3ccccc3Cl)C2)no1 (stereo unspecified) , state its measured Percent Effect.
11.6

Using the record for `Cc1noc2nc(C3CCN(Cc4ccncc4)CC3)cc(C(F)F)c12` , state its measured Percent Effect.
-1.72

Using the record for `CC(=O)N1CCn2cc(CNC(=O)c3cccn3C)nc2C1` , state its measured Percent Effect.
-3.72

Using the record for O=C(CCn1cnnc1)N1CCCC(c2ncc[nH]2)C1 (stereo unspecified) , state its measured Percent Effect.
0.524

Using the record for Cc1nc(C2CCCN2Cc2nnc(C3CC3)o2)no1 (stereo unspecified) , state its measured Percent Effect.
3.15

Using the record for `CCc1nnc2n1CCN(C(=O)c1cc(Br)c[nH]1)C2` , state its measured Percent Effect.
9.55

Using the record for `O=C(c1cccnc1)N1C[C@@H]2CC[C@H](C1)N(Cc1cccc(Cl)c1F)C2` , state its measured Percent Effect.
4.43

Using the record for COc1ccccc1C1CNC(=O)c2nc(-c3cnn(C)c3)[nH]c2C1 (stereo unspecified) , state its measured Percent Effect.
22.2

Using the record for `Cc1ccc(CNCc2ccc(-n3nc(C)cc3C)nc2)cc1` , state its measured Percent Effect.
7.65

Using the record for `CNS(=O)(=O)Cc1ccc(CNC(=O)c2cccc(C)n2)cc1` , state its measured Percent Effect.
2.86

Using the record for `CCCNC(=O)Nc1cccc2c1CCN(S(C)(=O)=O)C2` , state its measured Percent Effect.
6.12

Using the record for Cc1cc(C)cc(NC(=O)CN2CCCC(n3cncn3)C2)c1 (stereo unspecified) , state its measured Percent Effect.
6.56

Using the record for `CCC1=N[C@@]2(CC[C@@H]3CN(C(=O)NCC(C)C)C[C@@H]32)C(=O)N1CC(C)C` , state its measured Percent Effect.
5.84

Using the record for `CC(=O)N1CCC(Oc2ccc(Cl)cn2)CC1` , state its measured Percent Effect.
4.94

Using the record for CCc1nc(CN2CCCC(N(C)Cc3cnn(C)c3)C2)no1 (stereo unspecified) , state its measured Percent Effect.
3.69

Using the record for CC(C)(C)c1nnc(CN2CCCC(c3cc(C(N)=O)[nH]n3)C2)o1 (stereo unspecified) , state its measured Percent Effect.
-2.88

Using the record for `CCNC(=O)[C@@H]1C[C@H](NC(=O)c2cncnc2C)CN1CCCSC` , state its measured Percent Effect.
3.4

Using the record for `O=C(CSc1ccc2c(c1)OCCO2)NS(=O)(=O)C1CCCCC1` , state its measured Percent Effect.
-7.65

Using the record for Cc1ccc(C(CNCc2ccncc2)N2CCOCC2)s1 (stereo unspecified) , state its measured Percent Effect.
21.5

Using the record for CSc1ccc(CNC(c2ccccc2)c2nccn2C)cc1 (stereo unspecified) , state its measured Percent Effect.
8.74

Using the record for Cc1ccccc1CC1(CO)CCCN(c2ncccc2C#N)C1 (stereo unspecified) , state its measured Percent Effect.
0.621

Using the record for `O=C(c1ccc(F)cc1)N1C[C@H]2CCC[C@@]2(COCc2ccccn2)C1` , state its measured Percent Effect.
1.62

Using the record for `Cc1ncccc1Oc1nccnc1C1CCN(C(C)C)CC1` , state its measured Percent Effect.
5.77

Using the record for `O=S1(=O)COCCN1Cc1ccc(Cl)c(F)c1` , state its measured Percent Effect.
17.6

Source of measurements: ChEMBL document CHEMBL3988442
